# Test system: CAL-78 (Chondrosarcoma)
# assay protocol: Bliss excess, mean over the matrix (fraction); higher = more synergy;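 further: after 72 h of two-drug dosing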
measured endpoint: Bliss excess

[[record]]
molecule = "CN(C)CCCOc1ccc(-c2ccc3ncc4c(c3c2)n(C2CCOCC2)c(=O)n4C)cn1 [AZD0156] + C=CCn1c(=O)c2cnc(Nc3ccc(N4CCN(C)CC4)cc3)nc2n1-c1cccc(C(C)(C)O)n1 [AZD1775] (first compound max 1 µM, partner max 1 µM)"
test_value = -0.0854

[[record]]
molecule = "COc1cccc(OCCCN)c1-c1cc(Nc2cnc(C#N)cn2)n[nH]1 [Prexasertib] + O=C(c1cc(Cc2n[nH]c(=O)c3ccccc23)ccc1F)N1CCN(C(=O)C2CC2)CC1 [Olaparib] (first compound max 1 µM, 7x7, partner max 10 µM)"
test_value = -0.0535

[[record]]
molecule = "Cc1cc2ncnn2cc1Nc1ncc2c(n1)n(C1CCOCC1)c(=O)n2C [AZD7648] + C=CCn1c(=O)c2cnc(Nc3ccc(N4CCN(C)CC4)cc3)nc2n1-c1cccc(C(C)(C)O)n1 [AZD1775] (first compound max 10 µM, partner max 1 µM)"
test_value = -0.0147

[[record]]
molecule = "CC(=O)c1c(C)c2cnc(Nc3ccc(N4CCNCC4)cn3)nc2n(C2CCCC2)c1=O [Palbociclib] + Cc1c2c(nn1C)CSCc1cc(n(C)n1)CSc1cc(c3ccccc3c1)OCCCc1c(C(=O)O)n(C)c3c-2c(Cl)ccc13 [AZD5991] (first compound max 10 µM, 7x7, partner max 1 µM)"
test_value = -0.0395


---

# System: COR-L23 (Non-Small Cell Lung Carcinoma)
# assay protocol: Bliss excess, mean over the matrix (fraction); higher = more synergy
Collected Bliss excess values appear next to each entry.
measured endpoint: Bliss excess

[[record]]
compound = "Cn1cnc2c(F)c(Nc3ccc(Br)cc3Cl)c(C(=O)NOCCO)cc21 [Selumetinib] + C=CCn1c(=O)c2cnc(Nc3ccc(N4CCN(C)CC4)cc3)nc2n1-c1cccc(C(C)(C)O)n1 [AZD1775] (first compound max 10 µM, partner max 1 µM)"
target_system = "COR-L23 (Non-Small Cell Lung Carcinoma)"
test_value = 0.0308

[[record]]
compound = "CC1(C)CCC(CN2CCN(c3ccc(C(=O)NS(=O)(=O)c4ccc(NCC5CCOCC5)c([N+](=O)[O-])c4)c(Oc4cnc5[nH]ccc5c4)c3)CC2)=C(c2ccc(Cl)cc2)C1 [Venetoclax] + Cn1cnc2c(F)c(Nc3ccc(Br)cc3Cl)c(C(=O)NOCCO)cc21 [Selumetinib] (first compound max 1 µM, 7x7, partner max 3 µM)"
target_system = "COR-L23 (Non-Small Cell Lung Carcinoma)"
test_value = -0.0182

[[record]]
compound = "CN(CCO)CC[C@H](CSc1ccccc1)Nc1ccc(S(=O)(=O)NC(=O)c2ccc(N3CCC([C@@H](O)c4ccccc4-c4ccc(Cl)cc4)CC3)cc2)cc1S(=O)(=O)C(F)(F)F [AZD4320] + CCN(CCO)CCCOc1ccc2c(Nc3cc(CC(=O)Nc4cccc(F)c4)[nH]n3)ncnc2c1 [AZD2811] (first compound max 1 µM, 7x7, partner max 1 µM)"
target_system = "COR-L23 (Non-Small Cell Lung Carcinoma)"
test_value = -0.0343

[[record]]
compound = "COc1cccc(OCCCN)c1-c1cc(Nc2cnc(C#N)cn2)n[nH]1 [Prexasertib] + O=C(c1cc(Cc2n[nH]c(=O)c3ccccc23)ccc1F)N1CCN(C(=O)C2CC2)CC1 [Olaparib] (first compound max 1 µM, 7x7, partner max 10 µM)"
target_system = "COR-L23 (Non-Small Cell Lung Carcinoma)"
test_value = 0.0116

[[record]]
compound = "C=CCn1c(=O)c2cnc(Nc3ccc(N4CCN(C)CC4)cc3)nc2n1-c1cccc(C(C)(C)O)n1 [AZD1775] + C1CN(CCC1(C(=O)N[C@@H](CCO)C2=CC=C(C=C2)Cl)N)C3=NC=NC4=C3C=CN4 [Capivasertib] (first compound max 3 µM, partner max 3 µM)"
target_system = "COR-L23 (Non-Small Cell Lung Carcinoma)"
test_value = 0.0185

[[record]]
compound = "Cc1c2c(nn1C)CSCc1cc(n(C)n1)CSc1cc(c3ccccc3c1)OCCCc1c(C(=O)O)n(C)c3c-2c(Cl)ccc13 [AZD5991] + Cn1cnc2c(F)c(Nc3ccc(Br)cc3Cl)c(C(=O)NOCCO)cc21 [Selumetinib] (first compound max 1 µM, 7x7, partner max 3 µM)"
target_system = "COR-L23 (Non-Small Cell Lung Carcinoma)"
test_value = -0.0051

[[record]]
compound = "CCN(CCO)CCCOc1ccc2c(Nc3cc(CC(=O)Nc4cccc(F)c4)[nH]n3)ncnc2c1 [AZD2811] + O=C(c1cc(Cc2n[nH]c(=O)c3ccccc23)ccc1F)N1CCN(C(=O)C2CC2)CC1 [Olaparib] (first compound max 1 µM, 7x7, partner max 10 µM)"
target_system = "COR-L23 (Non-Small Cell Lung Carcinoma)"
test_value = -0.016

[[record]]
compound = "CC1(C)CCC(CN2CCN(c3ccc(C(=O)NS(=O)(=O)c4ccc(NCC5CCOCC5)c([N+](=O)[O-])c4)c(Oc4cnc5[nH]ccc5c4)c3)CC2)=C(c2ccc(Cl)cc2)C1 [Venetoclax] + C=CCn1c(=O)c2cnc(Nc3ccc(N4CCN(C)CC4)cc3)nc2n1-c1cccc(C(C)(C)O)n1 [AZD1775] (first compound max 1 µM, partner max 1 µM)"
target_system = "COR-L23 (Non-Small Cell Lung Carcinoma)"
test_value = -0.0609

[[record]]
compound = "CC(=O)Nc1cccc(-n2c(=O)n(C3CC3)c(=O)c3c(Nc4ccc(I)cc4F)n(C)c(=O)c(C)c32)c1 [Trametinib] + Cc1nc(-c2cn3c(n2)-c2ccc(-c4cnn(C(C)(C)C(N)=O)c4)cc2OCC3)n(C(C)C)n1 [Taselisib] (first compound max 1 µM, 7x7, partner max 10 µM)"
target_system = "COR-L23 (Non-Small Cell Lung Carcinoma)"
test_value = 0.162

[[record]]
compound = "COc1cccc(OCCCN)c1-c1cc(Nc2cnc(C#N)cn2)n[nH]1 [Prexasertib] + CN(C)CCCOc1ccc(-c2ccc3ncc4c(c3c2)n(C2CCOCC2)c(=O)n4C)cn1 [AZD0156] (first compound max 1 µM, 7x7, partner max 1 µM)"
target_system = "COR-L23 (Non-Small Cell Lung Carcinoma)"
test_value = 0.0229

[[record]]
compound = "CN(CCO)CC[C@H](CSc1ccccc1)Nc1ccc(S(=O)(=O)NC(=O)c2ccc(N3CCC([C@@H](O)c4ccccc4-c4ccc(Cl)cc4)CC3)cc2)cc1S(=O)(=O)C(F)(F)F [AZD4320] + C[C@@H]1COCCN1C2=NC(=NC(=C2)C3(CC3)[S@](=N)(=O)C)C4=C5C=CNC5=NC=C4 [AZD6738] (first compound max 1 µM, 7x7, partner max 10 µM)"
target_system = "COR-L23 (Non-Small Cell Lung Carcinoma)"
test_value = -0.0468

[[record]]
compound = "Cc1c2c(nn1C)CSCc1cc(n(C)n1)CSc1cc(c3ccccc3c1)OCCCc1c(C(=O)O)n(C)c3c-2c(Cl)ccc13 [AZD5991] + C1CN(CCC1(C(=O)N[C@@H](CCO)C2=CC=C(C=C2)Cl)N)C3=NC=NC4=C3C=CN4 [Capivasertib] (first compound max 1 µM, 7x7, partner max 3 µM)"
target_system = "COR-L23 (Non-Small Cell Lung Carcinoma)"
test_value = -0.0161

[[record]]
compound = "CC1(C)CCC(CN2CCN(c3ccc(C(=O)NS(=O)(=O)c4ccc(NCC5CCOCC5)c([N+](=O)[O-])c4)c(Oc4cnc5[nH]ccc5c4)c3)CC2)=C(c2ccc(Cl)cc2)C1 [Venetoclax] + Cc1cc2ncnn2cc1Nc1ncc2c(n1)n(C1CCOCC1)c(=O)n2C [AZD7648] (first compound max 1 µM, 7x7, partner max 10 µM)"
target_system = "COR-L23 (Non-Small Cell Lung Carcinoma)"
test_value = -0.0351


meta.source: the supplement of paper PMC11061612
